Cited source: patent US20230017045A1

Kindly supply the reported pest or weed control at 140 g/ha values for the records listed here.
# System: test plant species
# procedure.summary: Post-emergent herbicidal activity test (greenhouse, foliar spray, visual growth reduction)
# Assay type: in vivo
# recorded.conditions: post-emergence, 336 h, SORVU: grain sorghum (Sorghum vulgare), 140 g ai/ha, 14 days after application, read-out: Visual Growth Reduction (%) 14 Days After Application, SORVU

Previously resolved entries follow.
sample.smiles: COc1cc2c(cc1-c1ccc(Cl)c(C(=O)O)n1)OC(F)(F)O2
target.entity: test plant species
value.kind: pest or weed control at 140 g/ha
assay.value: 30 to 44%

sample.smiles: COC(=O)c1nc(-c2ccc3c(c2)C(F)(F)OC(F)(F)O3)c(Cl)cc1Cl
target.entity: test plant species
value.kind: pest or weed control at 140 g/ha
assay.value: 0 to 29%

Required: pest or weed control at 140 g/ha, one value per molecule below.
1. COC(=O)c1nc(-c2cc(F)c(C(F)(F)F)cc2OC)ccc1Cl
2. COC(=O)c1nc(-c2ccc(C(F)(F)F)cc2Cl)c(F)cc1F

Result:
85 to 94%
95 to 100%

Task: # get_value(readout= pest or weed control at 140 g/ha, system= test plant species) for COC(=O)c1nc(-c2ccc(C(F)(F)F)nc2F)c(F)cc1Cl
Result: 85 to 94%
